The measured values listed here are drawn from paper PMC11345829.

test system: COLO-205
Label class 1 when GI50 is strictly below 300 nM; otherwise label class 0.

COC(=O)c1c2c(c[n+]([O-])c1C)C(=O)C=CC2=O: class 0
COC(=O)c1c2c(c(C)[n+]([O-])c1C)C(=O)C=C(NCc1ccc(F)cc1)C2=O: class 1
COC(=O)c1c2c(c(C)[n+]([O-])c1C)C(=O)C=C(NCc1ccc(F)c(Cl)c1)C2=O: class 1
COC(=O)c1c2c(c(C)[n+]([O-])c1C)C(=O)C=C(NCc1ccc(Br)cc1)C2=O: class 0
COC(=O)c1c2c(c[n+]([O-])c1C)C(=O)C(NCc1ccccc1)=CC2=O: class 0
COC(=O)c1c2c(c(C)[n+]([O-])c1C)C(=O)C=C(NCc1cccc(Cl)c1)C2=O: class 1
COC(=O)c1c2c(c(C)[n+]([O-])c1C)C(=O)C(NCc1ccc(F)cc1)=CC2=O: class 0
COC(=O)c1c2c(c(C)[n+]([O-])c1C)C(=O)C=C(NCc1cccc(OC)c1)C2=O: class 1
